Reported Activity of AWAT2 (hDC4) towards various acyl-CoAs values follow for various compounds
Tgt: human AWAT2 (hDC4) (Homo sapiens, UniProt Q6E213)
Construct: The full-length hDC4 was then sub cloned into the EcoRI site of the pRS423-GP vector; made in house; host or cells: Saccharomyces cerevisiae SCY2056 (dga1Δ lro1Δ are2), galactose-inducible pRS423-GP vector; microsomes used
Sequence (Q6E213 whole entry): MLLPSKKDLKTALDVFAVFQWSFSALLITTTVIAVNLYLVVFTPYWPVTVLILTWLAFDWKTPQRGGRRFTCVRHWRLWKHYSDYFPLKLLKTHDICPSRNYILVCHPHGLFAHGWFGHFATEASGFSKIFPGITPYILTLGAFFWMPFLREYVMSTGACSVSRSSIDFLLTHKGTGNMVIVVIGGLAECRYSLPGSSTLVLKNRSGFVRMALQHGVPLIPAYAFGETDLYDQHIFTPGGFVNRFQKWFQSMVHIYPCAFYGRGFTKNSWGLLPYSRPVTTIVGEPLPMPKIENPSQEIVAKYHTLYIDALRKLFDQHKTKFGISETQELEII
Protocol Text: In vitro AWAT substrate specificity assay, AWAT2 microsomes
Type: biochemical
Assay Setup: 10 μg microsomes; [14C]cetyl alcohol as acyl acceptor; wax ester formed; vector control removed; mean +/- Std. dev., triplicate

# count of solved cases: 2
{"columns": ["Given Smiles", "Tgt", "Value Observed"],
 "data": [
  ["CCCCCCCCCCCCCCCC(=O)SCCNC(=O)CCNC(=O)[C@H](O)C(C)(C)COP(=O)(O)OP(=O)(O)OC[C@H]1O[C@@H](n2cnc3c(N)ncnc32)[C@H](O)[C@@H]1OP(=O)(O)O", "human AWAT2 (hDC4) (Homo sapiens, UniProt Q6E213)", "524 +/− 164 pmol/min/mg protein"],
  ["CCCCCCCC/C=C\\CCCCCCCC(=O)SCCNC(=O)CCNC(=O)[C@H](O)C(C)(C)COP(=O)(O)OP(=O)(O)OC[C@H]1O[C@@H](n2cnc3c(N)ncnc32)[C@H](O)[C@@H]1OP(=O)(O)O", "human AWAT2 (hDC4) (Homo sapiens, UniProt Q6E213)", "1232 +/− 349 pmol/min/mg protein"]
]}

Challenge: Which Activity of AWAT2 (hDC4) towards various acyl-CoAs is listed for CCCCCCCCCCCCCCCCCC(=O)SCCNC(=O)CCNC(=O)[C@H](O)C(C)(C)COP(=O)(O)OP(=O)(O)OC[C@H]1O[C@@H](n2cnc3c(N)ncnc32)[C@H](O)[C@@H]1OP(=O)(O)O ?
Response given: 549 +/− 38 pmol/min/mg protein

Challenge: And for CCCCCC/C=C\CCCCCCCC(=O)SCCNC(=O)CCNC(=O)[C@H](O)C(C)(C)COP(=O)(O)OP(=O)(O)OC[C@H]1O[C@@H](n2cnc3c(N)ncnc32)[C@H](O)[C@@H]1OP(=O)(O)O ?
Response given: 1125 +/− 220 pmol/min/mg protein
